ASSAY_NOTES: protein stability index of a GFP-peptide fusion (yeast GPS) (PSI 1-4); higher = more stable; sorted into four equal gates, so the index is relative within each strain
TEST_CONTEXT: pdr5∆
READOUT_KIND: protein stability index
Give bare numbers.

# count of solved cases: 3
{"SEQUENCE": "KDAEYLRNYLTPNVREE [PUP1]", "MEASURED_NUMBER": 3.01}
{"SEQUENCE": "ARYNWICNPVHKHREAR [RPL15B]", "MEASURED_NUMBER": 2.68}
{"SEQUENCE": "DALVKRFKNSVKWYHFD [PRE7]", "MEASURED_NUMBER": 3.37}

Consider the following items and state reported protein stability index for each.
1. VKNKYNVGKQLSNEIIY [PRP28]
2. VAFVCSPISDSRDELIR [RPN10]
3. KLRARLVEYGFDPSRIK [SMC2]
4. RTIANQDHFHRLNYLYQ [RPR2]

Output:
1. 2.6
2. 2.56
3. 2.62
4. 2.88

Task: Answer with the recorded protein stability index of EREQPQENKNIDDENIT [SRB4] only.
Output: 3.19
